measured-on: cAMP and cAMP-inhibited cGMP 3',5'-cyclic phosphodiesterase 10A (Homo sapiens)
Sequence (Q9Y233 as listed by the source): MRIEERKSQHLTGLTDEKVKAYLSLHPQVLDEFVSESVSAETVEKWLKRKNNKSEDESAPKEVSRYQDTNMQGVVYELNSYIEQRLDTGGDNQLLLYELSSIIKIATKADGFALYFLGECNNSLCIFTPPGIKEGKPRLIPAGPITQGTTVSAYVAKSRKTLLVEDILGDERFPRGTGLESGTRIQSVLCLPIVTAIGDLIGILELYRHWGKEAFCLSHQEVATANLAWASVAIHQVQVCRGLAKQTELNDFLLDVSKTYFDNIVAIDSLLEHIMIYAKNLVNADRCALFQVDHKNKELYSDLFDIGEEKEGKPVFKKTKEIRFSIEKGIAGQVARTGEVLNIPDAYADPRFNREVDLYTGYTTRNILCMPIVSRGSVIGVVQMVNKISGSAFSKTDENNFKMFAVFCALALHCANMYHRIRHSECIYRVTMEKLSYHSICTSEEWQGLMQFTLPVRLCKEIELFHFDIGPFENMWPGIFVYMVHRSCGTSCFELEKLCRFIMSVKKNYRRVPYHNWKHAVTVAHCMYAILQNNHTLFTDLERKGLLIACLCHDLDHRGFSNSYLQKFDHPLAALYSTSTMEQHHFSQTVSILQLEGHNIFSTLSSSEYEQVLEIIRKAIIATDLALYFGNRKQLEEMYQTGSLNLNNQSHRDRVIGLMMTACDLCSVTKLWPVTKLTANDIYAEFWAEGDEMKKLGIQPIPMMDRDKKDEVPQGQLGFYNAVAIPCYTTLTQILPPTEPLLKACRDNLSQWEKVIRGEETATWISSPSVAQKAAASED

| compound | IC50 |
| --- | --- |
| CCN(C)c1nc2cc(NC(=O)c3c(C(=O)O)cnn3C)ccn2n1 [Roche-Dataset for PDE10A, Compound 717] | 284 nM |
| CCOC(=O)CCc1ccc(NC(=O)c2nc(C3CC3)cnc2Nc2cncnc2)c(C(=O)NC)c1 | 0.59 nM |
| CC1(NC(=O)c2ncccc2NC(=O)c2nc(C3CC3)cnc2Nc2cncnc2)COC1 | 0.38 nM |
| Cn1cc(-c2ccccc2)nc1COc1ncc(Cl)nc1C(=O)NCc1ccccc1 [Roche-Dataset for PDE10A, Compound 297] | 134 nM |
